test system: HOP-92 NSCLC; assay: NCI-60 one-dose screen, 48 h (100 = growth as untreated, 0 = no growth, -100 = all killed); details: 10 µM unless noted
Compounds without any hit were thinned out: in the full panel of roughly 83,000, 20% have a hit.
Decision: growth beneath 60% gives MET; growth meeting or exceeding 60% gives NOT MET.

Illustrative cases are given below, each with its answer.
compound: O=C(O)COc1ccc(Cl)cc1C1CCCCC1
target: HOP-92 NSCLC
group_label: NOT MET

compound: OCCN1CCN(c2nc(Nc3ccc(-c4nc5ccccc5[nH]4)cc3)c3cn[nH]c3n2)CC1
target: HOP-92 NSCLC
group_label: MET

compound: COc1cc(/C=C/C(=O)c2cccnc2Nc2ccc(F)cc2)cc(OC)c1OC
target: HOP-92 NSCLC
group_label: MET

compound: COc1cc(-c2nc3ccccc3[nH]2)ccc1OCC(=O)N=Nc1c(O)[nH]c2ccc(Cl)cc12
target: HOP-92 NSCLC
group_label: MET

compound: CC1(C)CC[C@]2(C(=O)Nc3ccccn3)CC[C@]3(C)C(=CC[C@@H]4[C@@]5(C)C/C(=C/c6cccnc6)C(=O)C(C)(C)[C@@H]5CC[C@]43C)[C@H]2C1
target: HOP-92 NSCLC
group_label: MET

// query Lab note: growth threshold 60%. Does this compound come in strictly under it? `CN(C)C(=S)N=Nc1c(O)[nH]c2ccccc12`
// result MET

// query Hello, is growth of the following compound strictly smaller than 60%? `O=[N+]([O-])c1ccc(Nc2nc(NCCN3CCOCC3)ncc2[N+](=O)[O-])cc1`
// result NOT MET

// query Threshold test, growth < 60%: `O=C1C=CC(=O)N1c1ccc2c(c1)Cc1cc(F)ccc1-2`
// result NOT MET

* * *

test system: SNB-19 CNS; assay: NCI-60 one-dose screen, 48 h; details: 10 µM unless noted
Compounds without any hit were thinned out: in the full panel of roughly 83,000, 20% have a hit. Calls of active or inactive are those of the source. Rule for the calls: active = growth percent below 10; inactive = the rest.
Select the matching outcome among 1 for active, -1 for inactive

Answered examples (5):
molecule: CCCCC/C(C=C(C#N)C#N)=C/c1ccccc1
target: SNB-19 CNS
group_label: -1

molecule: COC(=O)c1ccc(Cn2cnc3c(N)ncnc32)cc1
target: SNB-19 CNS
group_label: -1

molecule: CCCCCCN(CCCCCC)CCC(O)c1ccc2ccccc2c1 (stereo not given)
target: SNB-19 CNS
group_label: -1

molecule: COc1ccc(-c2cc(=O)c3c(OC)c4ccoc4cc3o2)cc1
target: SNB-19 CNS
group_label: -1

molecule: NC(=O)c1cc(Br)ccc1NC(=O)/C=C/c1ccccc1
target: SNB-19 CNS
group_label: -1

// query What did this assay record as the result for `O=C1/C(=C/c2ccc(Cl)cc2)SC(=S)N1CCc1ccc(O)cc1` ?
// result -1

// query Can you look up the reported call for `COc1ccc(-c2nnc(SCC(=O)c3ccc(Cl)cc3)o2)cc1` for me?
// result -1

* * *

Test system: SK-MEL-28 melanoma
Experiment: NCI-60 one-dose screen, 48 h (100 = growth as untreated, 0 = no growth, -100 = all killed)
Settings: 10 µM unless noted
Protocol: Growth inhibition of the SK-MEL-28 human tumor cell line is measured as a screen for anti-cancer activity. Cells are grown in 96 well plates and exposed to the test compound for 48 hours. Compounds are tested at a single concentration, which is 10^-5 M for most compounds. The reported endpoint is percent growth (GI% or GIPRCNT), where numbers from 0 - 100% represent growth inhibition, and numbers from -100% - 0 represent cell death. For example, a value of 40 represents 60% growth inhibition. […]
Compounds without any hit were thinned out: in the full panel of roughly 83,000, 20% have a hit. The source made the active and inactive calls. How the source made its calls: active means growth percent below 10; inactive means the rest.
Below, each entry is listed with its recorded growth.

Solved entries (count: 3):
compound: COc1ccc(-n2nc(C)c3c(Nc4ccc(NC(=O)Nc5cc(C(F)(F)F)ccc5F)cc4)ncnc32)cc1
growth: 48.6% (inactive)
//
compound: CC(=O)Nc1ccc(S(=O)(=O)Nc2cccc(-c3nc(-c4ccc(NC(=O)c5cccnc5)cc4Cl)no3)c2)cc1
growth: 50.6% (inactive)
//
compound: C#CC(F)(F)[C@]1(O)CC[C@H]2[C@@H]3CCC4=CC(=O)CCC4=C3[C@@H](c3ccc(C4CC4)cc3)C[C@@]21C
growth: 90.2% (inactive)

// query Lab request: please report growth under test system SK-MEL-28 melanoma for `CN(C)CCCNc1c2ccccc2nc2ccccc12`
// result 103% (inactive)

// query Param readout= growth; system= SK-MEL-28 melanoma; entry= `COC(=O)c1cccc(NC(=O)c2ccc(-c3cccc(N)c3)o2)c1` ; returns value.
// result 102% (inactive)

* * *

system: SW-620 colon; test: NCI-60 one-dose screen, 48 h; settings: 10 µM unless noted
About 83,000 compounds went through this panel and 20% of them were active in at least one assay; those are over-represented in the sample as a whole. Calls of active or inactive are those of the source. Rule for the calls: active = growth percent below 10; inactive = the rest.
Respond only with the outcome that fits, drawn from active, inactive

compound: COc1cc2c(cc1OC)C(Sc1ccc(SC)cc1)c1c(nc(N)c(C#N)c1N)O2 (stereo unspecified)
group_label: active

// query Per the records of this test, what outcome belongs to `CCCCC/C(C=C(C#N)C#N)=C/c1ccccc1` ?
// result inactive

// query Please let me know the test result on file for `FC(F)(F)Oc1ccc2nc3nc4ccc[nH]c4cc3c2c1` .
// result inactive

// query Outcome? O=C1OCC2=C1C(c1ccncc1)c1cc3c(cc1N2CCO)OCO3 (stereo unspecified)
// result inactive

// query Dear colleague, could you share the recorded outcome for `COc1ccc(-n2nc(C)c3c(Nc4ccc(NC(=O)Nc5cccc(C(F)(F)F)c5)cc4)ncnc32)cc1` when you have a moment?
// result inactive

// query What did the test return for `O=C1C=CC(=O)N1c1ccc2c(c1)Cc1cc(F)ccc1-2` ?
// result inactive

* * *

Items are presented alongside their recorded growth.
tested on: NCI-H23 lung; assay: NCI-60 one-dose screen, 48 h (100 = growth as untreated, 0 = no growth, -100 = all killed); conditions: 10 µM unless noted
The panel holds about 83,000 compounds, 20% with a hit somewhere; the sample as a whole holds those more often.
Record the value in %, omitting the unit from your answer.

molecule: CCOc1cc2c(cc1OCC)C(c1cc(OC)c(O)cc1Cl)NCC2 (centres undefined)
readout_unit: %
growth: 96.7

// query # get_value(readout='growth', item= `Oc1cccc2ccc(N/N=C/c3cc(CN4CCOCC4)c(O)c4ncccc34)nc12` )
// result -2.08

// query Give the measured growth of `Cc1nc2c3c(-c4ccccc4)c(-c4ccccc4)oc3ncn2n1` .
// result 93.1

// query What does the data say about its growth? Entry: `CC1=C[C@H]2c3c(c(O)c(O)c4oc5c(C)cccc5c(=O)c34)[C@H](c3cc(O)c(O)c4oc5c(C)cccc5c(=O)c34)[C@H]2C(C)(C)C1`
// result -15.2

* * *

system: T-47D breast; experiment: NCI-60 one-dose screen, 48 h; conditions: 10 µM unless noted
About 83,000 compounds went through this panel and 20% of them were active in at least one assay; those are over-represented in the sample as a whole. Calls of active or inactive are those of the source. How the source made its calls: active means growth percent below 10; inactive means the rest.
// one of yes (active), no (inactive), no free text

Solved cases below.
compound: c1csc(C2=NN3C(C2)c2ccccc2OC3c2ccncc2)c1 (stereo not given)
group_label: no
//
compound: Cc1ccc2c(C(C[N+](=O)[O-])c3ccccc3F)c(-c3ccccc3)[nH]c2c1 (stereo not given)
group_label: no
//
compound: COc1cccc(/C=C2\Oc3cc(OCCN4CCCC4)ccc3C2=O)c1
group_label: no
//
compound: N=C(N)c1ccc(-c2ccc(-c3ccc4ccccc4c3)s2)s1
group_label: yes

Consider the record given below.
// query For `O=C1c2cc3c(cc2-c2c1c1cc(F)c(F)cc1c(=O)n2CCCn1ccnc1)OCO3` , what call appears in the results of this test?
// result yes

* * *

test system: OVCAR-8 ovarian; test: NCI-60 one-dose screen, 48 h; conditions: 10 µM unless noted
The panel holds about 83,000 compounds, 20% with a hit somewhere; the sample as a whole holds those more often. The source made the active and inactive calls. Rule for the calls: active = growth percent below 10; inactive = the rest.
Respond only with the outcome that fits, drawn from active, inactive

Solved cases (8 shown):
compound: CN(C)CCCNc1c2ccccc2nc2ccccc12
target: OVCAR-8 ovarian
group_label: inactive

compound: CCc1nc(N)nc(N)c1C#CC(C)c1ccc(-c2ccncc2)cc1Cl (stereo not given)
target: OVCAR-8 ovarian
group_label: inactive

compound: Clc1ccc2c(NCCNc3nc(N4CCOCC4)nc4ccccc34)ccnc2c1
target: OVCAR-8 ovarian
group_label: active

compound: N#Cc1nnn(-c2ccc(S(N)(=O)=O)cc2)c1NCC(=O)c1ccccc1
target: OVCAR-8 ovarian
group_label: inactive

compound: O=c1cc(CSc2nnc(-c3ccc(F)cc3)o2)c2ccc3ccccc3c2o1
target: OVCAR-8 ovarian
group_label: inactive

compound: O=C(Nc1ccc(Cl)cc1)c1cc2cc(F)ccc2cc1O
target: OVCAR-8 ovarian
group_label: active

compound: COc1ccc(Nc2cc(C)nc(N3CCN(c4ccnc5cc(Cl)ccc45)CC3)n2)cc1
target: OVCAR-8 ovarian
group_label: inactive

compound: CC(=O)OC[C@H]1O[C@H](OC(C)=O)[C@H](NC(=O)/C=C/CCl)[C@@H](OC(C)=O)[C@@H]1OC(C)=O
target: OVCAR-8 ovarian
group_label: inactive

// query Dear all, I need the recorded test outcome for `COc1cc2nc(N3CCCC3)nc(Nc3ccccc3)c2cc1OC` , thank you.
// result active

// query Status in this test for `Cc1[nH]c(-c2ccc3cc[nH]c3c2)c2c1C(=O)CCCC2` ?
// result inactive

Every entry's value here was drawn from PubChem BioAssay (NCI).
